Every entry's value here was drawn from PubChem BioAssay AID1918994.

The molecules listed here are annotated with their IC50.
# System: 292921-168-R-J2-PDC complex spheroid growth
# assay_text: Anticancer human tumor 292921-168-R-J2-PDC patient-derived pancreatic carcinoma cell line growth inhibition [AhR]
# measurement_context: curve of first compound; second compound 3.16 µM
observation_type: IC50

molecule="O=C(C=Cc1cccc(S(=O)(=O)Nc2ccccc2)c1)NO + Cc1cncc(-c2nc(NCCc3c[nH]c4ccccc34)c3ncn(C(C)C)c3n2)c1" measured_result="< 31.6 nM"
molecule="CC1COCCN1c1cc(C2(S(C)(=N)=O)CC2)nc(-c2ccnc3[nH]ccc23)n1 (stereo unspecified) + CC(CO)NC(=O)c1cc(-c2ccc(Cl)cc2)nn(-c2cnn(C)c2)c1=O" measured_result="2940 nM"
molecule="COc1cc(Nc2ncc3c(n2)-c2ccc(Cl)cc2C(c2c(F)cccc2OC)=NC3)ccc1C(=O)O + Cc1cncc(-c2nc(NCCc3c[nH]c4ccccc34)c3ncn(C(C)C)c3n2)c1" measured_result="< 31.6 nM"
molecule="O=C(C=Cn1cnc(-c2cc(C(F)(F)F)cc(C(F)(F)F)c2)n1)NNc1cnccn1 + Cc1cncc(-c2nc(NCCc3c[nH]c4ccccc34)c3ncn(C(C)C)c3n2)c1" measured_result="108 nM"
molecule="COc1cccc2c1C(=O)c1c(O)c3c(c(O)c1C2=O)CC(O)(C(=O)CO)CC3OC1CC(N)C(O)C(C)O1 (stereo unspecified) + Cc1cncc(-c2nc(NCCc3c[nH]c4ccccc34)c3ncn(C(C)C)c3n2)c1" measured_result="< 31.6 nM"
molecule="Cn1ncnc1C1c2n[nH]c(=O)c3cc(F)cc(c23)NC1c1ccc(F)cc1 (stereo unspecified) + Cc1ccccc1N=Nc1ccc(NC(=O)c2ccnn2C)c(C)c1" measured_result="> 100 nM"

###

# Test system: 292921-168-R-J2-PDC complex spheroid growth
# assay_text: Anticancer human tumor 292921-168-R-J2-PDC cell line growth inhibition [AhR]; active = viability on the fitted dose curve at most 10% of control; inactive = the rest;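 note: spheroids exposed to compounds for seven days after three days of growth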
# measurement_context: second compound 1 µM; first compound 0.0949 µM
# Text: Multicellular complex tumor spheroid response to aryl hydrocarbon receptor antagonists in combination with a variety of drugs and investigational agents in selected tumor cell lines […] Compounds. […] If the clinical Cmax for an agent had not been determined, the highest concentration tested was 10 microM (Table 1). […]
Classes used: Yes (active), No (inactive)

compound="CCN(c1cc(-c2ccc(CN3CCOCC3)cc2)cc(C(=O)NCc2c(C)cc(C)[nH]c2=O)c1C)C1CCOCC1 + Cc1ccccc1N=Nc1ccc(NC(=O)c2ccnn2C)c(C)c1" classification=No
compound="CCc1c2c(nc3ccc(O)cc13)-c1cc3c(c(=O)n1C2)COC(=O)[C@]3(O)CC + Cc1cncc(-c2nc(NCCc3c[nH]c4ccccc34)c3ncn(C(C)C)c3n2)c1" classification=Yes
compound="O=C(C=Cn1cnc(-c2cc(C(F)(F)F)cc(C(F)(F)F)c2)n1)NNc1cnccn1 + Cc1ccccc1N=Nc1ccc(NC(=O)c2ccnn2C)c(C)c1" classification=No

###

# Test system: 292921-168-R-J2-PDC complex spheroid growth
# assay_text: Anticancer human tumor 292921-168-R-J2-PDC cell line growth inhibition [AhR];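 note: spheroids exposed to compounds for seven days after three days of growth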
# measurement_context: second compound 0.316 µM; first compound 10 µM; stronger effect = lower value
The molecules listed here are annotated with their viability, T/C.
observation_type: viability, T/C

molecule="COc1cc(Nc2ncc3c(n2)-c2ccc(Cl)cc2C(c2c(F)cccc2OC)=NC3)ccc1C(=O)O + CC(CO)NC(=O)c1cc(-c2ccc(Cl)cc2)nn(-c2cnn(C)c2)c1=O" measured_result=33.3%
molecule="COc1cccc2c1C(=O)c1c(O)c3c(c(O)c1C2=O)CC(O)(C(=O)CO)CC3OC1CC(N)C(O)C(C)O1 (stereo not drawn) + CC(CO)NC(=O)c1cc(-c2ccc(Cl)cc2)nn(-c2cnn(C)c2)c1=O" measured_result=4.63%
molecule="CC1COCCN1c1cc(C2(S(C)(=N)=O)CC2)nc(-c2ccnc3[nH]ccc23)n1 (stereo not drawn) + CC(CO)NC(=O)c1cc(-c2ccc(Cl)cc2)nn(-c2cnn(C)c2)c1=O" measured_result=31.9%

###

# Tested on: 292921-168-R-J2-PDC complex spheroid growth
# assay_text: Anticancer human tumor 292921-168-R-J2-PDC cell line growth inhibition [AhR];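 note: spheroids exposed to compounds for seven days after three days of growth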
# measurement_context: second compound 0.316 µM; first compound 0.316 µM; stronger effect = lower value
Mark each entry rule met if its viability, T/C sits below 90%, and rule not met for all others.

compound="CC1COCCN1c1cc(-c2ccnn2C)c2ccnc(-c3ccn[nH]3)c2n1 (configuration not stated) + Cc1ccccc1N=Nc1ccc(NC(=O)c2ccnn2C)c(C)c1" classification="rule met"
compound="CC(C)c1c(-c2ccccc2)nc2c(C#N)c[nH]n2c1=O + Cc1ccccc1N=Nc1ccc(NC(=O)c2ccnn2C)c(C)c1" classification="rule met"
compound="O=C(C=Cc1cccc(S(=O)(=O)Nc2ccccc2)c1)NO + CC(CO)NC(=O)c1cc(-c2ccc(Cl)cc2)nn(-c2cnn(C)c2)c1=O" classification="rule met"
compound="COc1cc(Nc2ncc3c(n2)-c2ccc(Cl)cc2C(c2c(F)cccc2OC)=NC3)ccc1C(=O)O + CC(CO)NC(=O)c1cc(-c2ccc(Cl)cc2)nn(-c2cnn(C)c2)c1=O" classification="rule met"
compound="CC1(C)CCC(CN2CCN(c3ccc(C(=O)NS(=O)(=O)c4ccc(NCC5CCOCC5)c([N+](=O)[O-])c4)c(Oc4cnc5[nH]ccc5c4)c3)CC2)=C(c2ccc(Cl)cc2)C1 + CC(CO)NC(=O)c1cc(-c2ccc(Cl)cc2)nn(-c2cnn(C)c2)c1=O" classification="rule not met"
compound="Nc1ncn(C2CC(O)C(CO)O2)c(=O)n1 (configuration not stated) + Cc1ccccc1N=Nc1ccc(NC(=O)c2ccnn2C)c(C)c1" classification="rule met"
compound="CC1(C)CCC(CN2CCN(c3ccc(C(=O)NS(=O)(=O)c4ccc(NCC5CCOCC5)c([N+](=O)[O-])c4)c(Oc4cnc5[nH]ccc5c4)c3)CC2)=C(c2ccc(Cl)cc2)C1 + Cc1ccccc1N=Nc1ccc(NC(=O)c2ccnn2C)c(C)c1" classification="rule not met"
compound="CC(C)c1c(-c2ccccc2)nc2c(C#N)c[nH]n2c1=O + CC(CO)NC(=O)c1cc(-c2ccc(Cl)cc2)nn(-c2cnn(C)c2)c1=O" classification="rule not met"
compound="COc1cc(Nc2ncc3c(n2)-c2ccc(Cl)cc2C(c2c(F)cccc2OC)=NC3)ccc1C(=O)O + Cc1cncc(-c2nc(NCCc3c[nH]c4ccccc34)c3ncn(C(C)C)c3n2)c1" classification="rule met"
compound="NS(=O)(=O)OCC1CC(n2ccc3c(NC4CCc5ccccc54)ncnc32)CC1O (configuration not stated) + Cc1ccccc1N=Nc1ccc(NC(=O)c2ccnn2C)c(C)c1" classification="rule met"

###

# System: 292921-168-R-J2-PDC complex spheroid growth
# assay_text: Anticancer human tumor 292921-168-R-J2-PDC cell line growth inhibition [AhR];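 note: spheroids exposed to compounds for seven days after three days of growth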
# measurement_context: curve of first compound; second compound 3.16 µM
pIC50: −log10 of the molar value.
observation_type: pIC50

molecule="Cn1ncnc1C1c2n[nH]c(=O)c3cc(F)cc(c23)NC1c1ccc(F)cc1 (stereo unspecified) + CC(CO)NC(=O)c1cc(-c2ccc(Cl)cc2)nn(-c2cnn(C)c2)c1=O" measured_result="< 7.00"
molecule="Nc1ccn(C2OC(CO)C(O)C2(F)F)c(=O)n1 (stereo unspecified) + Cc1ccccc1N=Nc1ccc(NC(=O)c2ccnn2C)c(C)c1" measured_result="> 7.50"
molecule="COc1cc(C2c3cc4c(cc3C(OC3OC5COC(C)OC5C(O)C3O)C3COC(=O)C23)OCO4)cc(OC)c1O (stereo unspecified) + Cc1ccccc1N=Nc1ccc(NC(=O)c2ccnn2C)c(C)c1" measured_result=6.74
molecule="Nc1ccn(C2OC(CO)C(O)C2(F)F)c(=O)n1 (stereo unspecified) + CC(CO)NC(=O)c1cc(-c2ccc(Cl)cc2)nn(-c2cnn(C)c2)c1=O" measured_result="> 7.50"
molecule="Nc1ncn(C2CC(O)C(CO)S2)c(=O)n1 (stereo unspecified) + CC(CO)NC(=O)c1cc(-c2ccc(Cl)cc2)nn(-c2cnn(C)c2)c1=O" measured_result="< 6.52"
molecule="CC1COCCN1c1cc(C2(S(C)(=N)=O)CC2)nc(-c2ccnc3[nH]ccc23)n1 (stereo unspecified) + Cc1ccccc1N=Nc1ccc(NC(=O)c2ccnn2C)c(C)c1" measured_result=5.74

###

# Tested on: 292921-168-R-J2-PDC complex spheroid growth
# assay_text: Anticancer human tumor 292921-168-R-J2-PDC cell line growth inhibition [AhR];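 note: spheroids exposed to compounds for seven days after three days of growth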
# measurement_context: second compound 1 µM; first compound 0.003 µM; stronger effect = lower value
The compounds listed here are annotated with their viability, T/C.
observation_type: viability, T/C (%)

compound="Nc1ncn(C2CC(O)C(CO)S2)c(=O)n1 (stereo not drawn) + Cc1ccccc1N=Nc1ccc(NC(=O)c2ccnn2C)c(C)c1" observation_type="viability, T/C" measured_result=85
compound="CCc1c2c(nc3ccc(O)cc13)-c1cc3c(c(=O)n1C2)COC(=O)[C@]3(O)CC + Cc1cncc(-c2nc(NCCc3c[nH]c4ccccc34)c3ncn(C(C)C)c3n2)c1" observation_type="viability, T/C" measured_result=45.8
compound="CCc1c2c(nc3ccc(O)cc13)-c1cc3c(c(=O)n1C2)COC(=O)[C@]3(O)CC + Cc1ccccc1N=Nc1ccc(NC(=O)c2ccnn2C)c(C)c1" observation_type="viability, T/C" measured_result=53.6
